- System name: OsWOX13 (Oryza sativa, UniProt Q5QMM3 1-267)
- Sequence: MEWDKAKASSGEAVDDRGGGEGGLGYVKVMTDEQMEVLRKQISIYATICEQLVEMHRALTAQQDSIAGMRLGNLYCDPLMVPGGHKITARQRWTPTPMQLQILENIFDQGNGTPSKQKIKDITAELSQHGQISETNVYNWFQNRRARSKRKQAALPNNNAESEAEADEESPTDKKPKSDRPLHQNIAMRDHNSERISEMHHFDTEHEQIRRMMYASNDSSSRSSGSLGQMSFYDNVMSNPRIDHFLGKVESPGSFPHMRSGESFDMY
- Protocol notes: protein-binding microarray (RPBM); PBS, 2% BSA, 51.3 ng/ul salmon testes DNA, 50 uM zinc acetate, 200 nM TF, 25 C, 1 h; high values mean tight binding
- Applied conditions: protein: recombinant; tags: N-terminal polyhistidine and DsRed monomer fusion (pET32a); label: CyDye5-dUTP incorporated in the synthesized complementary strand; 3' TTTTT single-stranded linker to array surface; dsDNA, one strand shown
In all, about 35,000 sequences were measured (“fluorescence intensity (a.u.)”: median about 10,000, highest 2% from about 52,000 on). Many of the other results were omitted from the sample, so the highest values are more common in it than they were.
Endpoint: binding signal

>>> recorded_result("TAAAATAAATCAAATTAATACAAGTGAGATATCTTAGTAACGGAGTCACCTAGTGCAG")
"6480 fluorescence intensity (a.u.)"
>>> recorded_result("ATAATATTTAATATTTAATTAATTATGTGCTAATAAATCGCGGAGTCACCTAGTGCAG")
"14300 fluorescence intensity (a.u.)"
>>> recorded_result("GTTGCATATCAATCATCAAGAATCTCTTCAGAAAGAGGAGCGGAGTCACCTAGTGCAG")
"14000 fluorescence intensity (a.u.)"
>>> recorded_result("GTATGTTATTATATCAATTAGATTTATGCTAGCACTGTCGCGGAGTCACCTAGTGCAG")
"15200 fluorescence intensity (a.u.)"
>>> recorded_result("CAGAAACTGAAATACCAATTGATTCTTCCAATTCCCTGAACGGAGTCACCTAGTGCAG")
"6740 fluorescence intensity (a.u.)"
>>> recorded_result("CTGGATTGGTGATTGATTATCCGAGCAAGCAAAGACGATGCGGAGTCACCTAGTGCAG")
"63800 fluorescence intensity (a.u.)"
>>> recorded_result("GAAGATTGAGCTCTGCAGCAACAACCCAAACACACAAAGCCGGAGTCACCTAGTGCAG")
"3290 fluorescence intensity (a.u.)"
>>> recorded_result("TGCATTGATTTGGTATAATTGACCATGCTTTGCGATGCAACGGAGTCACCTAGTGCAG")
"57700 fluorescence intensity (a.u.)"
>>> recorded_result("CTATCTCATTGCTTAATTGGTCATATAATTGGGCTGAGTGCGGAGTCACCTAGTGCAG")
"16900 fluorescence intensity (a.u.)"
>>> recorded_result("AGTTTTAGCCTAAATTGGGTAAATTATATTTTAACCGTAACGGAGTCACCTAGTGCAG")
"11600 fluorescence intensity (a.u.)"
>>> recorded_result("TATATGGATTAACAGATAATTAGCAGCGGGGTTAGCAAAACGGAGTCACCTAGTGCAG")
"21000 fluorescence intensity (a.u.)"
>>> recorded_result("ATCCTTATTAATTTAATTTAACAAAGTCAACTTGATTTCCCGGAGTCACCTAGTGCAG")
"23100 fluorescence intensity (a.u.)"
>>> recorded_result("ATGATCAATCAGTAGATTATGCCCTGGTTATTCTTTATAACGGAGTCACCTAGTGCAG")
"25400 fluorescence intensity (a.u.)"
>>> recorded_result("TATACAATTATTTAAACAAAATTACCACTTTGCTACAACTCGGAGTCACCTAGTGCAG")
"8450 fluorescence intensity (a.u.)"
>>> recorded_result("AGTGATTAGTGAAGCAAAGGAAGACGACGAGTGACACGAGCGGAGTCACCTAGTGCAG")
"21900 fluorescence intensity (a.u.)"
>>> recorded_result("TCTTAATAATTATTTCTTAATTAATTCTGTGCTAATTGTGCGGAGTCACCTAGTGCAG")
"54300 fluorescence intensity (a.u.)"
>>> recorded_result("AAGTCTAATTAATTCATAATTAGCACATGTTTACTGTAGCCGGAGTCACCTAGTGCAG")
"53800 fluorescence intensity (a.u.)"
>>> recorded_result("TTTTCTTGATTAATTAAATATAAATTTGCATTTCATTTCACGGAGTCACCTAGTGCAG")
"16900 fluorescence intensity (a.u.)"
>>> recorded_result("GAATAATTATTACACAATGCTAATTAATTTCACAATATTGCGGAGTCACCTAGTGCAG")
"38800 fluorescence intensity (a.u.)"
>>> recorded_result("CACATGATTGATATCTCGTCACTGCTCGTAACTTCAGCCTCGGAGTCACCTAGTGCAG")
"62100 fluorescence intensity (a.u.)"
>>> recorded_result("AAATTGTATTCCTAATTGGACTCTCTTTTCCTTTTCTAATCGGAGTCACCTAGTGCAG")
"3430 fluorescence intensity (a.u.)"
>>> recorded_result("TGCTAGATTAAATTTTAAAACTATATTGTTCCTTTCATATCGGAGTCACCTAGTGCAG")
"12400 fluorescence intensity (a.u.)"
>>> recorded_result("AGCAATGCAACGATTATTAATTTAATTTGCACATGTATTGCGGAGTCACCTAGTGCAG")
"5900 fluorescence intensity (a.u.)"
>>> recorded_result("TAGAGAGATTGATATTTCATGTGCTCTAGAGATGGTTGAGCGGAGTCACCTAGTGCAG")
"28900 fluorescence intensity (a.u.)"
>>> recorded_result("TTATCGAACATACTAATTGACTCTCAGGGAGTCAAGGATCCGGAGTCACCTAGTGCAG")
"7680 fluorescence intensity (a.u.)"
>>> recorded_result("TATAATTGATTATTTTAATTTCTTTTGCTATTAATAGTCACGGAGTCACCTAGTGCAG")
"64700 fluorescence intensity (a.u.)"
>>> recorded_result("AAAATTTAATTGATTATATGCTAATAACTTTCTTGTTTTGCGGAGTCACCTAGTGCAG")
"51600 fluorescence intensity (a.u.)"
>>> recorded_result("ATGATTGTTGGAGCAAGGCCCAGCCCAAGGTAGCGTACATCGGAGTCACCTAGTGCAG")
"13400 fluorescence intensity (a.u.)"
>>> recorded_result("ATCGTATCATTGATTTTCACTTAATATGGTGGACCCATCACGGAGTCACCTAGTGCAG")
"12700 fluorescence intensity (a.u.)"
>>> recorded_result("TTAAATTTAAATTTGAGATTGATTTTGAGATATTTTCAACCGGAGTCACCTAGTGCAG")
"38200 fluorescence intensity (a.u.)"
>>> recorded_result("AGTGTAATTAACTTTCTTCTTCTCTCCAACTGCTTCAGCTCGGAGTCACCTAGTGCAG")
"11200 fluorescence intensity (a.u.)"
>>> recorded_result("AGCCATGCATCAACACGTAATTAAGTACTAGTTGACAGTGCGGAGTCACCTAGTGCAG")
"4190 fluorescence intensity (a.u.)"
>>> recorded_result("TCTAAATGATTGTTATTTTCTTTCCTATTGTAAAGTTCAACGGAGTCACCTAGTGCAG")
"18900 fluorescence intensity (a.u.)"
>>> recorded_result("TGGGCGGTTAATTTGACTTCGATGTTCAGTACCTTGTGGGCGGAGTCACCTAGTGCAG")
"4180 fluorescence intensity (a.u.)"
>>> recorded_result("CCCAAACGCCCTGAAATCAAATTGAATATTCCAATTTGCACGGAGTCACCTAGTGCAG")
"4630 fluorescence intensity (a.u.)"
>>> recorded_result("CATGGTGAATTGGTGATTTTATAATGATGCTAAGCTTTGACGGAGTCACCTAGTGCAG")
"4860 fluorescence intensity (a.u.)"
>>> recorded_result("TAAACCTAATTAATCATCATTAGCAAATGTTTACTGTAGCCGGAGTCACCTAGTGCAG")
"30400 fluorescence intensity (a.u.)"

These entries and their values trace back to paper PMC7819943.
